Values from PubChem BioAssay (NCI)

system: UACC-62 melanoma; assay: NCI tumour cell line growth inhibition, 48 h
The compounds listed here are annotated with their log10 of TGI.
MEASURE: log10 of TGI (log10 of the value in µM)

- COMPOUND: "C#CCOc1cccc(Nc2ncnc3cc(NC(=O)CCl)ccc23)c1"
  log10 of TGI: 1.23
- COMPOUND: "O=c1cccccc1[O-].O=c1cccccc1[O-].O=c1cccccc1[O-].[La+3]"
  log10 of TGI: 1.72
- COMPOUND: "CCCCCCCCCCCCCCCCCCN(C)CC(COP(=O)([O-])OCC[N+](C)(C)C)OC (centres undefined)"
  log10 of TGI: 1.52
- COMPOUND: "C/C(=N\\NC(=S)NCCCNC(=S)N/N=C(\\C)c1ccccn1)c1ccccn1"
  log10 of TGI: 1.15
- COMPOUND: "CCCCn1c2c(n(CCCC)c1=S)-c1c(n(CCCC)c(=S)n1CCCC)SSc1c(n(CCCC)c(=S)n1CCCC)-c1c(n(CCCC)c(=S)n1CCCC)SSc1c(n(CCCC)c(=S)n1CCCC)-c1c(n(CCCC)c(=S)n1CCCC)SS2"
  log10 of TGI: 1.31
- COMPOUND: "COc1ccc(C(=O)/C=C/c2cc(O)c(O)c(F)c2F)c(OC)c1"
  log10 of TGI: 1.63
- COMPOUND: "COc1cc(-c2nc(SCCC(C)C)nc(Nc3ccc(S(N)(=O)=O)cc3)c2C#N)cc(OC)c1OC"
  log10 of TGI: 1.36
- COMPOUND: "CC(=O)OCc1cc2ccccc2nc1C(Br)(Br)Br"
  log10 of TGI: 1.51
- COMPOUND: "Cn1cc(-c2ccc(-c3ccc(C4=NC5(CC5)C(=O)N4C[C@@H]4CCN(C(=O)C5CC5)C4)cc3)cc2)cn1"
  log10 of TGI: 1.54
- COMPOUND: "CCN(CC)c1ccc(N=Nc2ccc(-c3nc4ccc[n+](C)c4o3)cc2)cc1"
  log10 of TGI: 1.35
- COMPOUND: "CO/N=C(\\C)c1cccc(Nc2c3ccccc3nc3occc23)c1"
  log10 of TGI: 1.35
- COMPOUND: "O=C(NNC(=S)NC1CCCCC1)c1csc(NC(=S)NC2CCCCC2)n1"
  log10 of TGI: 1.35
- COMPOUND: "Cc1cc(N2CCOCC2)cc2[nH]c(-c3c(NC[C@@H](O)c4cccc(Cl)c4)cc[nH]c3=O)nc12"
  log10 of TGI: 1.10
- COMPOUND: "CC(C)NC(=O)CN1CCN(c2c(O)c3c(c(O)c2Cl)C(=O)C=CC3=O)CC1"
  log10 of TGI: 0.51
- COMPOUND: "CCN1CCN(CC(=O)N2c3cccc4cccc(c34)N(C(=O)CN3CCN(CC)CC3)C2c2cn(-c3ccccc3)nc2-c2cccc([N+](=O)[O-])c2)CC1"
  log10 of TGI: 0.51
- COMPOUND: "OC(c1cc(C23CC4CC(CC(C4)C2)C3)nc2c(Cl)cc(Cl)cc12)C1CCCCN1 (centres undefined)"
  log10 of TGI: 0.50
